# system.tested: System Xc^− cystine/glutamate antiporter (Homo sapiens)
# procedure.summary: [^14C]L-Cystine uptake assay
# Assay type: cell-based
# settings: H4 cells, 15 min preincubation, 1 hour at 37° C., sodium-free HEPES buffer; read-out: [^14C] L-Cystine uptake assay (range of pIC50) (converted)
Each entry below carries its recorded IC50.

compound	system.tested	IC50
CC(=O)c1ccc(NC(=O)CN2C(=O)C(C)c3ncccc3-c3c2cc(N2CC(C)(F)C2)nc3F)cc1 (centres unmarked) [#26]	System Xc^− cystine/glutamate antiporter (Homo sapiens)	15.8 to 39.8 nM

Quick one: IC50 of COc1nc(C)cc2c1-c1cccnc1C(C)C(=O)N2CC(=O)Nc1ccc(C(C)=O)cc1 (single isomer, unassigned) [#13] ?
< 15.8 nM

Quick one: IC50 of CC(=O)c1ccc(NC(=O)CN2C(=O)C(C)c3ncccc3-c3c(F)cc(N4CC(F)C4)cc32)cc1 (centres unmarked) [#35] ?
< 15.8 nM

Quick one: IC50 of CC(=O)c1ccc(NC(=O)CN2C(=O)[C@H](C)c3ncc(F)cc3-c3c2cc(C)nc3Cl)cc1 [#5] ?
< 15.8 nM

Quick one: IC50 of COc1cc2c(c(F)n1)-c1cc(F)cnc1C(C)C(=O)N2CC(=O)Nc1ccc(C(C)=O)cc1 (single isomer, unassigned) [#17] ?
< 15.8 nM

* * *

# system.tested: System Xc^− cystine/glutamate antiporter (Homo sapiens, UniProt Q9UPY5)
# Sequence (Q9UPY5 whole entry): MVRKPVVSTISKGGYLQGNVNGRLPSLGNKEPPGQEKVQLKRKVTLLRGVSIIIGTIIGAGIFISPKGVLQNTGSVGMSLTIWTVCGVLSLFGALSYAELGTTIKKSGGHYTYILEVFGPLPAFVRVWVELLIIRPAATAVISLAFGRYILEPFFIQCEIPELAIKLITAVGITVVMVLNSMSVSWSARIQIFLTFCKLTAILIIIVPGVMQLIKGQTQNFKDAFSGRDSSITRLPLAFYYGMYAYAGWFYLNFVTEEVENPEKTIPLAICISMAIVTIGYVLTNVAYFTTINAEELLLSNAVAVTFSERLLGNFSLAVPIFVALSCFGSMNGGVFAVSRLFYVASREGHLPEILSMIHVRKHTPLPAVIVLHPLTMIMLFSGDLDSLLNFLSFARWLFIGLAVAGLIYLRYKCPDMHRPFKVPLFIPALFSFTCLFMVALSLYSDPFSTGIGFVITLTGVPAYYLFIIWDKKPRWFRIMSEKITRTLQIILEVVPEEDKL
# Sequence (P08195 102-630 partner): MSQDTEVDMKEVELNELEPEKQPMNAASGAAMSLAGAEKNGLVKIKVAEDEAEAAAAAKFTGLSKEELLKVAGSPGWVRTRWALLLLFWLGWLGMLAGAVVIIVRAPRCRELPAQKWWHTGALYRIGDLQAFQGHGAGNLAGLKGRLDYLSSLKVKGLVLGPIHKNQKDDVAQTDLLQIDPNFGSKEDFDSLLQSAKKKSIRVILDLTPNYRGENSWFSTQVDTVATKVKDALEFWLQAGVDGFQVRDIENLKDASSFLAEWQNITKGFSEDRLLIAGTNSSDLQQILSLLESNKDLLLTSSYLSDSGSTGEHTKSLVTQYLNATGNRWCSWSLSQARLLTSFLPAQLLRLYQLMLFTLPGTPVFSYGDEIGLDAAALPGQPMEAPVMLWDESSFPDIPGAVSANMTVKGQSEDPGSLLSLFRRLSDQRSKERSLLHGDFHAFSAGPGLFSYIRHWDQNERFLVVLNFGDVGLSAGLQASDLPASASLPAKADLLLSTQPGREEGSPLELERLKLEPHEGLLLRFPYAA
# procedure.summary: Cystine-induced glutamate release assay
# Format: cell-based
# Set-up: endogenous in cells; host or cells: H4 cells
# settings: H4 cells, 50 μM L-Cystine, 2 hours, sodium-free HEPES buffer; read-out: Cystine-induced glutamate release assay (range of pIC50) (converted)
Each entry below carries its recorded IC50.

Observed IC50 on System Xc^− cystine/glutamate antiporter (Homo sapiens, UniProt Q9UPY5) for CC(=O)c1ccc(NC(=O)CN2C(=O)C(C)c3ncccc3-c3c2cc(C)nc3F)cc1F (stereo not shown) , please.
0.0398 to 0.1 µM

Observed IC50 on System Xc^− cystine/glutamate antiporter (Homo sapiens, UniProt Q9UPY5) for CC(=O)c1ccc(NC(=O)CN2C(=O)[C@H](C)c3ncc(F)cc3-c3c2cc(C)nc3Cl)cc1 , please.
< 0.0158 µM

Observed IC50 on System Xc^− cystine/glutamate antiporter (Homo sapiens, UniProt Q9UPY5) for COc1cnc2c(c1)-c1cnc(C)cc1N(CC(=O)Nc1ccc(C(C)=O)cc1)C(=O)C2C (single isomer, unassigned) , please.
0.0398 to 0.1 µM

Observed IC50 on System Xc^− cystine/glutamate antiporter (Homo sapiens, UniProt Q9UPY5) for CC(=O)c1ccc(NC(=O)CN2C(=O)C(C)c3ncc(F)cc3-c3cnc(C)cc32)cc1 (stereo not shown) , please.
0.0398 to 0.1 µM

Observed IC50 on System Xc^− cystine/glutamate antiporter (Homo sapiens, UniProt Q9UPY5) for CC(=O)c1ccc(NC(=O)CN2C(=O)C(C)c3ncccc3-c3c2cc(C)nc3Cl)cc1 (single isomer, unassigned) , please.
< 0.0158 µM

* * *

# system.tested: System Xc^− cystine/glutamate antiporter (Homo sapiens)
# procedure.summary: Cystine-induced glutamate release assay
# Assay type: cell-based
# Parameters: endogenous in cells; host or cells: H4 cells
# settings: H4 cells, 50 μM L-Cystine, 2 hours, sodium-free HEPES buffer; read-out: Cystine-induced glutamate release assay (range of pIC50) (converted)
readout.label: IC50

compound	value.observed
CC(=O)c1ccc(NC(=O)CN2C(=O)C(C)c3ncc(F)cc3-c3cc(C#N)c(C)cc32)cc1 (single isomer, unassigned) [#19]	15.8 to 39.8 nM
Cc1cc2c(c(F)n1)-c1cc(F)cnc1C(C)C(=O)N2CC(=O)Nc1ccc2c(c1)OCC2=O (single isomer, unassigned) [#18]	39.8 to 100 nM
COc1cc2c(c(F)n1)-c1cccnc1C(C)C(=O)N2CC(=O)Nc1ccc(C(C)=O)cc1 (single isomer, unassigned) [#11]	15.8 to 39.8 nM

Quick one: IC50 of Cc1cc2c(c(F)n1)-c1cccnc1[C@@H](C)C(=O)N2CC(=O)Nc1ccc(C(=O)C2CC2)cc1 [#2] ?
100 to 501 nM

Quick one: IC50 of COc1cc2c(c(F)n1)-c1cc(F)cnc1C(C)C(=O)N2CC(=O)Nc1ccc(C(C)=O)cc1 (single isomer, unassigned) [#17] ?
39.8 to 100 nM

* * *

# system.tested: System Xc^− cystine/glutamate antiporter (Homo sapiens, UniProt Q9UPY5)
# procedure.summary: Cystine-induced glutamate release assay
# Type: cell-based
# Design: endogenous in cells; host or cells: H4 cells
# settings: H4 cells, 50 μM L-Cystine, 2 hours, sodium-free HEPES buffer; read-out: Cystine-induced glutamate release assay (range of pIC50) (converted)
Each entry below carries its recorded IC50.

Below, each entry is followed by its recorded IC50 result.
compound	IC50
COc1nc(C)cc2c1-c1cccnc1C(C)C(=O)N2CC(=O)Nc1ccc(C(C)=O)cc1 (single isomer, unassigned)	15.8 to 39.8 nM
CC(=O)c1ccc(NC(=O)CN2C(=O)C(C)c3cnc(F)cc3-c3c2cc(C)nc3F)cc1 (stereo not drawn)	39.8 to 100 nM
CC(=O)c1ccc(NC(=O)CN2C(=O)C(C)c3nscc3-c3c2cc(C)nc3F)cc1 (stereo not drawn)	39.8 to 100 nM
CC(=O)c1ccc(NC(=O)CN2C(=O)C(C)c3ncc(F)cc3-c3c2cc(CO)nc3F)cc1 (stereo not drawn)	100 to 501 nM
CC(=O)c1ccc(NC(=O)CN2C(=O)C(C)c3ncccc3-c3c2cc(N2CC(F)C2)nc3F)cc1 (stereo not drawn)	< 15.8 nM

Quick one: IC50 of CC(=O)c1ccc(NC(=O)CN2C(=O)[C@H](C)c3ncc(F)cc3-c3c2cc(C)nc3F)cc1 ?
15.8 to 39.8 nM

Quick one: IC50 of CC(=O)c1ccc(NC(=O)CN2C(=O)Cc3ncccc3-c3c2cc(N2CC(C)(O)C2)nc3F)cc1 ?
39.8 to 100 nM

Quick one: IC50 of CC(=O)c1ccc(NC(=O)CN2C(=O)C(C)c3ncccc3-c3c2cc(F)nc3F)cc1 (single isomer, unassigned) ?
39.8 to 100 nM

Quick one: IC50 of COc1nccc2c1-c1cccnc1C(C)C(=O)N2CC(=O)Nc1ccc(C(C)=O)cc1 (single isomer, unassigned) ?
39.8 to 100 nM

Quick one: IC50 of CC(=O)c1ccc(NC(=O)CN2C(=O)C(C)c3ncccc3-c3c2cc(C2(O)CCC2)nc3F)cc1 (stereo not drawn) ?
39.8 to 100 nM

Quick one: IC50 of CC(=O)c1ccc(NC(=O)CN2C(=O)C(C)c3ncccc3-c3c2cc(C2CCC2)nc3F)cc1 (stereo not drawn) ?
15.8 to 39.8 nM

Quick one: IC50 of CC(=O)c1ccc(NC(=O)CN2C(=O)C(C)c3ncc(F)cc3-c3c2cc(C)nc3F)cc1O (single isomer, unassigned) ?
< 15.8 nM

Quick one: IC50 of CC(=O)c1ccc(NC(=O)CN2C(=O)[C@H](C)c3ncccc3-c3c2cc(C)nc3F)cc1 ?
15.8 to 39.8 nM

Quick one: IC50 of CC(=O)c1ccc(NC(=O)CN2C(=O)Cc3ncccc3-c3c2cc(N2CC4(C2)CC4(F)F)nc3Cl)cc1 ?
100 to 501 nM

Quick one: IC50 of COc1cc2c(cn1)-c1cc(F)cnc1C(C)C(=O)N2CC(=O)Nc1ccc(C(C)=O)cc1 (single isomer, unassigned) ?
100 to 501 nM

Quick one: IC50 of CC(=O)c1ccc(NC(=O)CN2C(=O)Cc3ncccc3-c3c2cc(N2CC(F)C2)nc3F)cc1 ?
15.8 to 39.8 nM

Quick one: IC50 of CC(=O)c1ccc(NC(=O)CN2C(=O)Cc3ccccc3-c3c2cc(C)nc3F)cc1 ?
100 to 501 nM

Quick one: IC50 of CCC(=O)c1ccc(NC(=O)CN2C(=O)[C@H](C)c3ncccc3-c3c2cc(C)nc3F)cc1 ?
39.8 to 100 nM
